Reported IC50 by item:
# Tested target: recombinant human MAO-A (monoamine oxidase-A) (Homo sapiens)
# Construct: purchased Sigma-Aldrich
# Sequence (P21397 1-527): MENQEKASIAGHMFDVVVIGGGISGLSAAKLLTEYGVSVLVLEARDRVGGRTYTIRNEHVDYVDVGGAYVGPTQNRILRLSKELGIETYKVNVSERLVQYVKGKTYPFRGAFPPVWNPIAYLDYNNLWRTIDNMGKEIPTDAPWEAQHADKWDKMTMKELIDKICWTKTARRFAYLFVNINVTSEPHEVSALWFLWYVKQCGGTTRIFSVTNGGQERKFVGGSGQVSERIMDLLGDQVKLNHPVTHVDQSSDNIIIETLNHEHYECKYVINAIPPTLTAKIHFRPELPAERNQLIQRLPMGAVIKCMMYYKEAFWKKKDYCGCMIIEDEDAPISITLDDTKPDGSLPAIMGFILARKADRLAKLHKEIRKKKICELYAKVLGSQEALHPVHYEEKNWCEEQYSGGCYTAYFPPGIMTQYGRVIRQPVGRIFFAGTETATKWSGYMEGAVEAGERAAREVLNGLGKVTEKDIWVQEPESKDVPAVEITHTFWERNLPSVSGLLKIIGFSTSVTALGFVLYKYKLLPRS
# Protocol details: Activity on recombinant human MAO-A, Amplex Red method, 0.5 mM tyramine substrate
# Assay type: biochemical
# Details: 0.5 mM tyramine, read-out: Inhibitory Activity (IC50, nM) MAO-A
Counter-ions that a name gives are not always drawn.

Compound: Cc1cc(-n2cnn(C/C(=C/F)CN)c2=O)cnc1-c1ccc2c(c1)OCO2
IC50: > 100000 nM
//
Compound: NC/C(=C\F)Cn1ncn(-c2ccc(Br)cn2)c1=O [Example 30, hydrochloride]
IC50: 1900 nM
//
Compound: NC/C(=C\F)Cn1ncn(-c2cccc(C3=CCNCC3)c2)c1=O [Example 48, dihydrochloride]
IC50: > 100000 nM

Okay, next one:
Prompt line: Please respond with reported IC50 (system recombinant human MAO-A (monoamine oxidase-A) (Homo sapiens)) for Cc1c(-c2ccc(-c3ccon3)cc2)cccc1-n1cnn(C/C(=C/F)CN)c1=O .
Response line: > 100000 nM
